Recorded values, source the nanobody polyreactivity screen of Harvey et al. (2022).

- run description: yeast display, Sf9 membrane polyspecificity reagent, FACS + sequencing; frameworks hold sequencing errors
parameter: polyreactivity (PSR sort gate)

residue string	polyreactivity (PSR sort gate)
QVQLVESAGGLVQAGGSLRLSCAASGRIFGYNAMGWYRQAPGKERELVAVITYSGGSTYYADSVKGRFTISRDNAKNTVYLQMNSLKPEDTAVYYCAKATTWGYFRVWSTRYYYWGQGTQVTVSS	low polyreactivity
QVQIVDSGVGLVQAGGSLRLSCAASGSIFKYNAKGWYREAPGKVRELVAAIRWSGVGTRYADSVKGRFTISRVNAKNTVYLQMNSLKPEDTAVYSCAARYGRHRVSCYATWRYGYWGQGTQVTVSS	low polyreactivity
QVQLVESGGGLVQAGGSLRLSCAASGRIFLYYTMGWYRQAPGKERELVAAITRSGGSTYYADSVKGRFTISRDNAKNTVYLQMNSLKPEDTAVYYCNRAYVRYVPMNYWGQGTQVTVSS	high polyreactivity
QVQLVESGGGIVQAGGSLSLSCAASGFIIPSYTMGWYRQAPGKERDLVAGITQRGGSTYYADSVKGRFTISRDNAKNTVYLQMNSLNPEDTAVYYCARGISRGRSFGIGYDYWGQGTQVTLSS	low polyreactivity

From here, focus on the item given below.
In plain terms, QVQLVESGGGLVQAGGSLRLSCAASGFIFYDYAMGWYRQAPGKERELVAAISKRGGSTYYADSVKGRFTISRDNAKNTVYLQMNSLKPEDTAVYYCAATSYRRTGYNYWGQGTQVTVSS has a documented polyreactivity (PSR sort gate) of high polyreactivity
